Tested on: dsDNA (DNA, hairpin, HEG linker (non-nucleotide loop) between 10 and 11) TATAGCTATATATAGCTATA
Experiment: UV-Vis titration
Conditions: K+ (100 mM KF, 10 mM potassium phosphate); PBS pH 7.4, ca. 20 °C; 5 μM DNA; 1:1 fit; per base
observation-type: KD (µM)

Answered examples (2):
| structure-string | reported |
| --- | --- |
| CC(C)(C)OC(=O)N[C@H](CN1C(=O)c2ccc3c4c(ccc(c24)C1=O)C(=O)N(C[C@@H](NC(=O)OC(C)(C)C)C(=O)O)C3=O)C(=O)O | 30.7 |
| CC(C)C[C@H](CC(=O)O)N1C(=O)c2ccc3c4c(ccc(c24)C1=O)C(=O)N([C@@H](CC(=O)O)CC(C)C)C3=O | 50.2 |

(P) CC(C)(C)OC(=O)N[C@@H](CN1C(=O)c2ccc3c4c(ccc(c24)C1=O)C(=O)N(C[C@H](NC(=O)OC(C)(C)C)C(=O)O)C3=O)C(=O)O
(Q) CC(C)C[C@@H](CC(=O)O)N1C(=O)c2ccc3c4c(ccc(c24)C1=O)C(=O)N([C@H](CC(=O)O)CC(C)C)C3=O
Could you tell me which of these two has the smaller KD figure? First: P Second: Q Return value: the label identifying the chosen record.
Q

---

System: c-KIT1 (DNA, G4) GGGAGGGCGCTGGGAGGAGGG
Test: variable-temperature CD
Details: K+ (100 mM KF, 10 mM potassium phosphate); PBS pH 7.4; 2 μM DNA, 5 equivalents (10 μM) compound
observation-type: ΔTm (°C)

| structure-string | units-of-measure | ΔTm |
| --- | --- | --- |
| CC(C)(C)OC(=O)N[C@H](CN1C(=O)c2ccc3c4c(ccc(c24)C1=O)C(=O)N(C[C@@H](NC(=O)OC(C)(C)C)C(=O)O)C3=O)C(=O)O | °C | 1.7 |

(P) O=C(O)[C@@H](O)CN1C(=O)c2ccc3c4c(ccc(c24)C1=O)C(=O)N(C[C@H](O)C(=O)O)C3=O
(Q) CC(C)(C)OC(=O)N[C@@H](CN1C(=O)c2ccc3c4c(ccc(c24)C1=O)C(=O)N(C[C@H](NC(=O)OC(C)(C)C)C(=O)O)C3=O)C(=O)O
(R) CC(C)C[C@H](CC(=O)O)N1C(=O)c2ccc3c4c(ccc(c24)C1=O)C(=O)N([C@@H](CC(=O)O)CC(C)C)C3=O
// ascending sort on recorded ΔTm Would you mind listing the labels in the order requested?
R, P, Q
